# glycan array binding signal (z-score) listing for each entry below
Biological target: Fuc(a1-3)[Gal3S(b1-4)]GlcNAc6S
Experiment: glycan array binding signal (z-score within array); higher = stronger binding
Conditions: glycan notation: IUPAC condensed, linker removed
This excerpt belongs to a sample that is enriched for the strongest signals.
reported_endpoint: glycan array binding signal (z-score)

>  <binder>
Flo11 (Saccharomyces cerevisiae), Q1H8S8 (protein) MGSSHHHHHHSSGLVPRGSHMFPTALVPRGSSEGTSCNSIVNGCPNLDFNWHMDQQNIMQYTLDVTSVSWVQDNTYQITIHVKGKENIDLKYLWSLKIIGVTGPKGTVQLYGYNENTYLIDNPTDFTATFEVYATQDVNSCQVWMPNFQIQFEYLQGSAAQYASSWQWGTTSFDLSTGCNNYDNQGHSQTDFPGFYWNIDCDNNCGGTKSS

>  <test_result>
1.26

$$$$
>  <binder>
KILRGVCKKIMRTFLRRISKDILTGKK [NK2 (Sus scrofa)]

>  <test_result>
1.58

$$$$
>  <binder>
Thrombomodulin (Mus musculus) (protein) ALAKLQPTGSQCVEHECFALFQGPATFLDASQACQRLQGHLMTVRSSVAADVISLLLSQSSMDLGPWIGLQLPQGCDDPVHLGPLRGFQWVTGDNHTSYSRWARPNDQTAPLCGPLCVTVSTATEAAPGEPAWEEKPCETETQGFLCEFYFTASC

>  <test_result>
-0.172

$$$$
>  <binder>
OGAN (protein) MVQKESQATLEERESELSSNPAASAGASLEPPAAPAPGEDNPAGAGGAAVAGAAGGARRFLCGVVEGFYGRPWVMEQRKELFRRLQKWELNTYLYAPKDDYKHRMFWREMYSVEEAEQLMTLISAAREYEIEFIYAISPGLDITFSNPKEVSTLKRKLDQVSQFGCRSFALLFNDIDHNMCAADKEVFSSFAHAQVSITNEIYQYLGEPETFLFCPTEYCGTFCYPNVSQSPYLRTVGEKLLPGIEVLWTGPKVVSKEIPVESIEEVSKIIKRAPVIWDNIHANDYDQKRLFLGPYKGRSTELIPRLKGVLTNPNCEFEANYVAIHTLATWYKSNMNGVRKDVVMTDSEDSTVSIQIKLENEGSDEDIETDVLYSPQMALKLALTEWLQEFGVPHQY

>  <test_result>
-0.076

$$$$
